B1: Segment polarity protein dishevelled homolog DVL-3, residues 2 to 81; numbered along this chain, Q92997 (parent)
chain: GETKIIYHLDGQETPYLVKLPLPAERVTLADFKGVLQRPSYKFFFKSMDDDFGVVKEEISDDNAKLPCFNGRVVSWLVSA

Variants of: B1
Test: abundance fitness (aPCA) (normalised: wild type 0, dead -1); higher = more abundant; growth selection in yeast, the domain comes from the species named
Conditions: Homo sapiens
Outcome: yes for abundance fitness of at least -0.2; no for anything lower.

A selection of reference data follows.
L29S
no
V27G
no
D49W
no
V55C
yes
L36E
no

Could you please find out whether "L22C" has abundance fitness that meets -0.2 or exceeds it?
no

Could you please find out whether "E25M" has abundance fitness that meets -0.2 or exceeds it?
no

Could you please find out whether "E58K" has abundance fitness that meets -0.2 or exceeds it?
no

Could you please find out whether "Q37L" has abundance fitness that meets -0.2 or exceeds it?
yes

Could you please find out whether "P23L" has abundance fitness that meets -0.2 or exceeds it?
no

Could you please find out whether "D51T" has abundance fitness that meets -0.2 or exceeds it?
yes

Could you please find out whether "D61P" has abundance fitness that meets -0.2 or exceeds it?
no

Could you please find out whether "E58A" has abundance fitness that meets -0.2 or exceeds it?
no

Could you please find out whether "F69E" has abundance fitness that meets -0.2 or exceeds it?
yes

Could you please find out whether "D31E" has abundance fitness that meets -0.2 or exceeds it?
yes

Could you please find out whether "S40C" has abundance fitness that meets -0.2 or exceeds it?
yes

Could you please find out whether "P67C" has abundance fitness that meets -0.2 or exceeds it?
no

Could you please find out whether "S60H" has abundance fitness that meets -0.2 or exceeds it?
yes

Source listed as the Human Domainome abundance scans (Beltran et al. 2025).
